# Tested on: SK-MEL-2 melanoma
# assay explanation: NCI-60 one-dose screen, 48 h (100 = growth as untreated, 0 = no growth, -100 = all killed)
# run conditions: 10 µM unless noted
About 83,000 compounds went through this panel and 20% of them were active in at least one assay; those are over-represented in the sample as a whole.
# growth listing for each entry below
measurement kind: growth (%)

1. CN1C(=O)N(C)C2(c3ccccc3)N(CC(=O)Nc3ccccc3O)C(=O)NC12c1ccccc1 (stereo not given); 111
2. COc1cc(-c2[nH]ncc2Nc2ccc(Cl)cc2)cc(OC)c1OC; 112
3. COc1ccc(-c2cc(-c3cccnc3)nc3sc4c(Cl)nnnc4c23)cc1OC; 98.3
4. CCOC(=O)c1ccc(Nc2ncnc3c2cnn3-c2cccc(F)c2)cc1; 114
5. Cn1cc(C2=C(c3cccc4ccccc34)C(=O)NC2=O)c2cc(Br)ccc21; 111
6. COc1cc(/C=C2\C(=O)N(CCCCn3c4ccccc4c(=O)c4ccccc43)c3ccccc32)cc(OC)c1O; 26.5
7. COc1ccc(CCNC(=O)COc2cc3c(Nc4ccc(F)c(Cl)c4)ncnc3cc2OC)cc1OC; 86.9
8. COC(=O)c1[nH]nc(OC)c1C1(C(C#N)c2nc3ccccc3s2)CCCc2ccccc21 (stereo not given); 88.7
9. CC1=C2[C@@H](CC1)[C@]1(C)O[C@@](C3CC3)(C[C@H]1OC(=O)CO)[C@H]2OC(=O)/C=C/c1ccccc1; 97.2
10. COc1cc(CO)cc2cc3ccccc3nc12; 111
11. COc1ccc(C/C(C)=C(\c2ccc(O)cc2)c2ccc(OCCCN(C)C)cc2)cc1; 88.4
12. N#C/C(=C\c1ccc(Br)cc1)n1nnc2c(F)cccc21; 28.4
13. COC(=O)[C@H]1Cc2c([nH]c3ccccc23)[C@@H](c2cccs2)N1; 97.2
14. CC(=O)N1N=C(c2ccc(F)cc2)CC1c1sc(N(C)Cc2ccccc2)nc1Cl (stereo not given); 96.1
15. N#CC(Cc1cccc2ccccc12)c1cc2ccccc2[nH]1 (stereo not given); 113
16. COc1ccc(Nc2nn3c(SCC(=O)c4ccc(C)cc4)nnc3s2)cc1; 98.2
17. O=C(N=Nc1c(O)[nH]c2ccccc12)Nc1ccccc1Cl; 102
18. Nc1ccc(-c2ccc(N)c(Br)c2)cc1Br; 44
19. COc1ccc2c(c1)c(C(=O)c1nc(-c3cn(C)c4ccccc34)no1)cn2C; 101
20. Cc1nn(-c2nc(-c3cc4ccccc4oc3=O)cs2)c(C)c1N=Nc1ccccc1; 113
21. Nc1ccc(/C=N/Nc2ccnc3c(N)cccc23)c2cccnc12; 87.9
22. CCNC(=O)Nc1ncccc1OCc1ccc(F)cc1; 99.8
23. O=S(=O)(Nc1cc(Sc2cccc3cccnc23)c(O)c2ccccc12)c1ccc(F)cc1; 1.64
24. COc1ccc(C2Nc3nc(SC)nc(N)c3N=C3c4ccccc4CCC32)cc1 (stereo not given); 107
25. O=C(CCCOc1ccc(Br)cc1)Nc1ncc(Cc2ccc(F)cc2)s1; 93.3
26. Cc1ccc(NC(=O)N/C(N)=N/c2nc(=O)c3ccccc3s2)cc1; 106
27. [2H]C([2H])([2H])Oc1cccc(/C=C/C(=O)/C=C(/C=C/c2cccc(OC([2H])([2H])[2H])c2OC([2H])([2H])[2H])OB(F)F)c1OC([2H])([2H])[2H]; 116
28. CN1Cn2c(ccc2C(F)(F)F)C(=O)CS1(=O)=O; 105
29. Clc1nccc2c(-c3csc(-c4c[nH]c5ccc(Br)cc45)n3)c[nH]c12; 48.7
30. CCC(=O)Oc1cc(Cl)c(Cl)cc1Cl; 103
31. N=C(N)SCc1c2ccccc2c(CSC(=N)N)c2ccccc12; 79.2
32. C=C(CNCCO)[C@@H]1CC[C@]2(CO)CC[C@]3(C)[C@H](CC[C@@H]4[C@@]5(C)CCC(NCCc6ccc(O)cc6)C(C)(C)[C@@H]5CC[C@]43C)[C@@H]12 (stereo not given in full); -84.1
33. C/C(=C(\c1ccc(OCCN2CCOCC2)cc1)c1ccc(OC(=O)C2CCCCC2)cc1)c1ccc(Cl)cc1; 92.6
34. O=C1N=c2ccccc2=C1c1sc(=S)n(C2CC(=O)N(c3ccc(Cl)cc3)C2=O)c1O (stereo not given); 102
35. CN(C)C1CCN(C(=O)c2ccc(NC(=O)Nc3ccc(-c4nc(N5CCOCC5)c5cccn5n4)cc3)cc2)CC1; -7.66
36. CCOC(=O)C(=Cc1ccc(C#N)cc1)C(=O)OCC; 42.9
37. CCNC(=S)n1nc(SC)c(C(=O)OCC)c1N; 105
38. O=C1OCC2=C1C(c1cccc(C(F)(F)F)c1)c1cc3c(cc1N2CCO)CCC3 (stereo not given); 9.34
39. Cc1ccc(-c2nc3nc(-c4ccccc4)nc(N4CCCNCC4)c3o2)cc1; -2.85
40. Cc1ccc(-c2nc3nc(-c4ccc(Br)cc4)nc(N4CCCNCC4)c3o2)cc1; 108

* * *

# growth listing for each entry below
# System: MALME-3M melanoma
# assay explanation: NCI-60 one-dose screen, 48 h (100 = growth as untreated, 0 = no growth, -100 = all killed)
# run conditions: 10 µM
This is part of a sample that, as a whole, favours compounds with a hit. Of some 83,000 tested, about 20% had one in any assay. Calls of active or inactive are those of the source. Rule for the calls: active = growth percent below 10; inactive = the rest.
measurement kind: growth

1) COc1ccc(C(=O)/C=C/c2ccc(OCc3cccc(C(F)(F)F)c3)c(OC)c2)cc1OC; 97.7% (inactive)
2) O=C(/C=C/c1cccc(Oc2ccc(Cl)cc2)c1)c1ccccc1; 102% (inactive)
3) COc1ccc(C(=O)/C=C/c2ccc(OCc3ccc(Cl)cc3)cc2)cc1OC; 110% (inactive)
4) CC(=O)/C=C/c1ccc(OCc2ccc(C(C)(C)C)cc2)cc1; 86.4% (inactive)
5) CC(=O)/C=C/c1ccc(N(CCO)Cc2ccc(C(C)(C)C)cc2)cc1; 84.5% (inactive)

* * *

# System: SF-268 CNS
# assay explanation: NCI-60 one-dose screen, 48 h (100 = growth as untreated, 0 = no growth, -100 = all killed)
# run conditions: 10 µM unless noted
# Method: Cells are grown in 96 well plates and exposed to the test compound for 48 hours. Compounds are tested at a single concentration, which is 10^-5 M for most compounds. The reported endpoint is percent growth (GI% or GIPRCNT), where numbers from 0 - 100% represent growth inhibition, and numbers from -100% - 0 represent cell death. For example, a value of 40 represents 60% growth inhibition. A value of 0 means no net growth occurred over the course of the experiment. […]
This is part of a sample that, as a whole, favours compounds with a hit. Of some 83,000 tested, about 20% had one in any assay.
Assign MET to entries whose growth meets or exceeds 90%; assign NOT MET to the rest.

1) O=C1/C(=C/c2ccc(F)c(F)c2)CN(C(=O)C(Cl)Cl)C/C1=C\c1ccc(F)c(F)c1; NOT MET
2) COc1cc(CNC(=O)CCCC/C=C/C(C)C)ccc1OCc1cn(-c2ccc([N+](=O)[O-])cc2)nn1; NOT MET
3) CCCCCCCCCCCCCCCC(=O)O[C@@H]1[C@@H](O)[C@@H](O)C([C@H](NC(=O)[C@@H]2C[C@@H](CCC)CN2C)[C@H](C)Cl)O[C@@H]1SC (stereo not given in full); MET
4) CCC(=O)Oc1cc(Cl)c(Cl)cc1Cl; MET
5) CCCCCC#CC1OC23CCCCC2C(C#N)(C(=N)O3)C1(C#N)C#N (stereo not given); MET
6) CCOC(=O)C1=C(C)NC(=O)NC1c1c(Cl)n(-c2ccccc2)c2ccccc12 (stereo not given); NOT MET
7) O=C1CCCCN1CCCCC#Cc1cccc(C#Cc2cccnc2)c1; NOT MET
8) COc1ccc2c(c1)oc1c(C)c3c(c(C)c12)C(=O)N(Nc1ccccc1)C3=O; MET
9) COc1cc2cc(NCc3ccncc3)nc(C)c2cc1OC; NOT MET

* * *

# Tested on: SF-268 CNS
# assay explanation: NCI-60 one-dose screen, 48 h (100 = growth as untreated, 0 = no growth, -100 = all killed)
# run conditions: 10 µM unless noted
About 83,000 compounds went through this panel and 20% of them were active in at least one assay; those are over-represented in the sample as a whole.
Assign condition met to entries whose growth meets or exceeds 50%; assign condition not met to the rest.

1. Cc1n(Cc2ccc3ccccc3c2)c(Cl)c(Cl)[n+]1Cc1ccc2ccccc2c1; condition not met
2. COc1cc(N=Nc2ccc(O)c3ncccc23)c2ncccc2c1; condition not met
3. CCc1c2c(nc3ccc(OCc4ccc(B5OC(C)(C)C(C)(C)O5)cc4)cc13)-c1cc3c(c(=O)n1C2)COC(=O)[C@]3(O)CC; condition not met
4. Cc1nc2sc(C(=O)Nc3cccc4ccccc34)c(N)c2cc1C(=O)/C=C/c1ccccc1; condition not met
5. COC(=O)N/N=C/c1c[n+]([O-])c2ccccc2[n+]1[O-]; condition met
6. COc1nc(=O)n(C2C=CC(=O)O2)cc1F (stereo not given); condition met
7. O=C1C(Nc2ccc(Cl)cc2)=C(I)C(=O)c2ncccc21; condition not met
8. O=C(NNC(=S)Nc1ccccc1)c1ccncc1; condition met
9. COc1ccc(/C=C/C(=O)c2cc3c(N)c(C(=O)Nc4ccccc4Cl)sc3nc2C)cc1; condition met
10. CCCCCCCCN(CCCCCCCC)CC(O)c1cc(Cl)ccc1OC (stereo not given); condition met
11. Nc1ccc(-c2ccc(N)c(Br)c2)cc1Br; condition not met
12. NC1=CC(=O)c2cccnc2C1=O; condition not met
13. N=c1c2c(-c3ccccc3)c(-c3ccccc3)oc2ncn1NC(=O)c1cccnc1; condition met
14. COc1ccc(/C=C/C(=O)c2cc3c(N)c(C(=O)Nc4ccccc4)sc3nc2C)cc1; condition not met
15. Brc1ccc(/C=C(/C2=NCCN2)n2ccc3ccccc32)cc1; condition met
16. COc1cc(C=O)ccc1Oc1ccc([N+](=O)[O-])cc1[N+](=O)[O-]; condition met
17. CCN1CCN(C(=O)[C@]23CC[C@@H](C)[C@H](C)[C@@H]2C2=CC[C@@H]4[C@@]5(C)CCC(=O)C(C)(C)[C@@H]5CC[C@@]4(C)[C@]2(C)CC3)CC1; condition not met
18. COC1/C=C/OC2(C)Oc3c(C)c(O)c4c(O)c(c(C=NOC(c5ccccc5)c5ccccc5)c(O)c4c3C2=O)NC(=O)/C(C)=C/C=C/C(C)C(O)C(C)C(O)C(C)C(OC(C)=O)C1C (stereo not given); condition not met
19. Cc1nc2sc(C(=O)Nc3cccc(Cl)c3C)c(N)c2cc1C(O)c1ccccc1 (stereo not given); condition not met
20. CCCCCCCCCCCCCCCCCCOc1cccc(CC(=O)OCC[N+](CC)(CC)CC)c1; condition met
